Tested on: P. falciparum
Test: in vitro P. falciparum growth inhibition / dose response assay (Hoechst 33342 FACS read out)
Format: cell-based, Plasmodium falciparum
Conditions: Plasmodium falciparum; in vitro, FIG. 7B; read-out: affinity (IC50 values, in vitro anti-parasitic activity)
metric-name: pIC50
Value format note: pIC50 is -log10 of concentration (mol/L); just state the number.

Result for C1=NC(c2ccccc2)C(c2ccccc2)N1Cc1cccc(CN2C=NC(c3ccccc3)C2c2ccccc2)c1 (stereo not shown) , tested on P. falciparum, pIC50: 6.92
